Data origin: patent US9868748B2

# Measured target: full-length RORγt in Jurkat cells (Homo sapiens (Human), UniProt P51449)
# Sequence (P51449 other isoform, or with tags, fused parts or gaps): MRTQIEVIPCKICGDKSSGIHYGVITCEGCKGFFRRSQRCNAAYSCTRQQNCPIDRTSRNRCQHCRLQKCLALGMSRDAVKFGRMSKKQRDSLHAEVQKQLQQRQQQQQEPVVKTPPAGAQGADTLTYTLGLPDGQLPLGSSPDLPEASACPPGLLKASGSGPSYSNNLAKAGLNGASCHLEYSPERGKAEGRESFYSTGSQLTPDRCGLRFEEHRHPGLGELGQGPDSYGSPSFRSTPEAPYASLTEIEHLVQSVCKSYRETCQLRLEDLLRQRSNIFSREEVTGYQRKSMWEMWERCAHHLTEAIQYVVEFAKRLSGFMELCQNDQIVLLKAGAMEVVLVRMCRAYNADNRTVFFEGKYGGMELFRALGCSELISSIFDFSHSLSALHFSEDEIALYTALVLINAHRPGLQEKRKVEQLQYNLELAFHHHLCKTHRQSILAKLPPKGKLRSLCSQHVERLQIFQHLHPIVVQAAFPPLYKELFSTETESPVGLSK
# Measurement protocol: RORγt 5xRORE Assay in Jurkat Cells (Assay 2)
# Type: cell-based
# Particulars: Nanoluc luciferase reporter, 16-18 hrs, Table 9, read-out: RORγt5X IC50 Range*
Value type: IC50

Here's what some known entries look like.
>>> val("CCS(=O)(=O)c1ccc(CC(=O)Nc2nc3c(s2)CN(Cc2ccc(Br)cc2)[C@H]3C(C)C)cc1")
"< 100 nM"
>>> val("CC[C@H]1c2nc(NC(=O)Cc3ccc(CO)cc3)sc2CN1Cc1ccc(Cl)cc1")
"100 to 1000 nM"
>>> val("CCS(=O)(=O)c1ccc(CC(=O)Nc2nc3c(s2)CN(Cc2cccc(C(F)(F)F)c2)[C@@H]3C(C)C)cc1")
"> 1000 nM"
>>> val("CCS(=O)(=O)c1ccc(CC(=O)Nc2nc3c(s2)CN(c2nc4cccnc4s2)[C@H]3C(C)C)cc1")
"> 1000 nM"
>>> val("CC(C)[C@H]1c2nc(NC(=O)Cc3ccc(-c4nnn[nH]4)cc3)sc2CN1Cc1ccc(Cl)cc1")
"> 1000 nM"

Problem: Form field: reported IC50 of `CCS(=O)(=O)c1ccc(CC(=O)Nc2nc3c(s2)CN(Cc2ccc(Cl)cc2)[C@@]3(C)C(C)C)cc1`
Result: < 100 nM

Problem: Item: `CC(C)[C@H]1c2nc(C(=O)NCc3ccc(S(C)(=O)=O)cc3)sc2CN1Cc1ccc(F)cc1`
Result: > 1000 nM

Problem: Item: `CCS(=O)(=O)c1ccc(CC(=O)Nc2nc3c(s2)CN(Cc2cccc(Br)c2)[C@@H]3C(C)C)cc1`
Result: > 1000 nM

* * *

IC50 values by entry
# Measured target: full-length RORγt in Jurkat cells (Homo sapiens (Human), UniProt P51449)
# Measurement protocol: RORγt 5xRORE Assay in Jurkat Cells (Assay 2)
# Format: cell-based
# Particulars: Nanoluc luciferase reporter, 16-18 hrs, Table 9, read-out: RORγt5X IC50 Range*

>>> val("Cc1nnc(-c2ccc(CN3Cc4sc(NC(=O)Cc5ccc(S(C)(=O)=O)cc5)nc4[C@@H]3C(C)C)cc2)o1")
"< 100 nM"

Problem: Form field: reported IC50 of CCS(=O)(=O)c1ccc(CC(=O)Nc2nc3c(s2)CN(C(C)c2cccc(C(F)(F)F)c2)[C@@H]3C(C)C)cc1 (stereo partly shown)
Result: > 1000 nM

Problem: Item: `CCS(=O)(=O)c1ccc(CC(=O)Nc2nc3c(s2)CN(Cc2ccc(C#N)cc2C(F)(F)F)[C@H]3C(C)C)cc1`
Result: > 1000 nM

Problem: Item: `CCS(=O)(=O)c1ccc(CC(=O)Nc2nc3c(s2)CN(Cc2cc(OC)cc(OC)c2)[C@@H]3C(C)C)cc1`
Result: > 1000 nM

* * *

# Measured target: recombinant RORγ Ligand Binding Domain (LBD) protein (Homo sapiens (Human), UniProt P51449)
# Sequence (P51449 269-508): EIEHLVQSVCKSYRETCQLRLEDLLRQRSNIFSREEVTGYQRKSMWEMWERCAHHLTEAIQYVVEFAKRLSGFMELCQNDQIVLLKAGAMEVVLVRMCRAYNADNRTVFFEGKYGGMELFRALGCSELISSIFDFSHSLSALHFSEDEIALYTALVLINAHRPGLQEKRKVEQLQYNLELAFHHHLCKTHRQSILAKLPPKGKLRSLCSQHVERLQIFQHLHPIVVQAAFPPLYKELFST
# Measurement protocol: Radio-Ligand RORγ Binding Assay (Assay 1)
# Particulars: competition with 25-hydroxy [26,27-3H]-cholesterol, SPA; Table 9; read-out: RORγ Binding Ki Range*
Ki values by entry

Here's what some known entries look like.
>>> val("COc1ccc(CC(=O)Nc2nc3c(s2)CN(Cc2ccc(Cl)cc2)[C@H]3C(C)C)cc1")
"< 100 nM"
>>> val("CCS(=O)(=O)c1ccc(CC(=O)Nc2nc3c(s2)CN(CCc2ccccc2)[C@@H]3C(C)C)cc1")
"< 100 nM"
>>> val("CCS(=O)(=O)c1ccc(CC(=O)Nc2nc3c(s2)CN(Cc2ccccc2)[C@@H]3C(C)C)cc1")
"< 100 nM"

Next item in the queue.
Problem: Form field: reported Ki of `CCS(=O)(=O)c1ccc(CC(=O)Nc2nc3c(s2)CN(c2nccc(C(F)(F)F)n2)[C@H]3C(C)C)cc1`
Result: < 100 nM
